Data provenance is patent US9018206B2.

- target or system: calpain-I isolated from human erythrocytes (Homo sapiens, UniProt P07384)
- Construct: calpain-I—isolated from human erythrocytes
- Sequence (P07384 1-714): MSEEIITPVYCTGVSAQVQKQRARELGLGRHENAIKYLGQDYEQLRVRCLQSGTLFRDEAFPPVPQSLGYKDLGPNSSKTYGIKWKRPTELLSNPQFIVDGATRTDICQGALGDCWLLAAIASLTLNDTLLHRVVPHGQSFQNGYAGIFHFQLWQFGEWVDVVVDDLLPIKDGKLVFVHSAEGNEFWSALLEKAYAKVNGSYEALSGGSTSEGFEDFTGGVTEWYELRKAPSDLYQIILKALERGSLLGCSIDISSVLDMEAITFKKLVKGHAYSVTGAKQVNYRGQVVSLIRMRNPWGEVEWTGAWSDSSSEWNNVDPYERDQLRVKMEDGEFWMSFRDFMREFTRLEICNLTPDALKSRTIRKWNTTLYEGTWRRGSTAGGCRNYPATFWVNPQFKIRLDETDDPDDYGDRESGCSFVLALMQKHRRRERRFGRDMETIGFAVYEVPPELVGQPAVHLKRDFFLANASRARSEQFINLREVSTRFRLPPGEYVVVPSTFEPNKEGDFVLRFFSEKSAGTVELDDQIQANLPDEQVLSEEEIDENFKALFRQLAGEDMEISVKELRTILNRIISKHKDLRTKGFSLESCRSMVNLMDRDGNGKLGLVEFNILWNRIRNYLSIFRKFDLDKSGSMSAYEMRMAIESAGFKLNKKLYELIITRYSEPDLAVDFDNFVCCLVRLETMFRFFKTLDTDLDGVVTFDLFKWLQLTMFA
- Sequence (P04632 1-268 partner): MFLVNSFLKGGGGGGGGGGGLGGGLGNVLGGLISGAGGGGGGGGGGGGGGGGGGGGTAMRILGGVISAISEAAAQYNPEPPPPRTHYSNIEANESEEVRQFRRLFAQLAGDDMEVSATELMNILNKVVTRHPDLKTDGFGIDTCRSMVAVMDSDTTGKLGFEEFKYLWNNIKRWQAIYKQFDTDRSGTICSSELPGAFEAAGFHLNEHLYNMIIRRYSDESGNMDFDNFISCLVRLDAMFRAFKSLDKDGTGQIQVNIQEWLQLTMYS
- assay summary: Calpain I enzyme inhibition in vitro (kinetic fluorescence assay)
- condition notes: apparent Ki from IC50 (Cheng-Prussoff); 20 nM calpain-I, 100 μM Suc-Leu-Tyr-AMC, pH 7.3, room temperature
Each entry below carries its recorded Ki.

                                   compound  endpoint_label  reported_measurement
0  NC(=O)C(=O)C(Cc1ccccc1)NC(=O)[C@H]1CCC(=O)N1Cc1cccc(Cl)c1 (stereo partly shown) [Example 3]              Ki               < 50 nM

Specify reported Ki for the compound shown: NC(=O)C(=O)C(Cc1ccccc1)NC(=O)[C@H]1CCC(=O)N1Cc1ccccc1 (mixture of isomers) [Example 1] < 50 nM

Return Ki for the following compound: CCNC(=O)C(=O)C(Cc1ccccc1)NC(=O)[C@H]1CCC(=O)N1Cc1c(Cl)cccc1Cl (mixture of isomers) [Example 62] 100 to 600 nM

---

- target or system: calpain-I isolated from human erythrocytes (Homo sapiens)
- Construct: calpain-I—isolated from human erythrocytes
- assay summary: Calpain I enzyme inhibition in vitro (kinetic fluorescence assay)
- condition notes: apparent Ki from IC50 (Cheng-Prussoff); 20 nM calpain-I, 100 μM Suc-Leu-Tyr-AMC, pH 7.3, room temperature
pKi: −log10 of the molar value.
This listing pairs compounds with measured pKi.

>>> df
                                   compound  reported_measurement
0  O=C(Nc1ccccc1)C(=O)C(Cc1ccccc1)NC(=O)[C@H]1CCC(=O)N1Cc1ccccc1 (mixture of isomers) [Example 65]          7.00 to 7.30
1  CCCNC(=O)C(=O)C(Cc1ccccc1)NC(=O)[C@H]1CCC(=O)N1Cc1ccccc1 (mixture of isomers) [Example 26]          6.22 to 7.00

Read the next record carefully.
Quickly give me recorded pKi for O=C(NCCc1ccccn1)C(=O)C(Cc1ccccc1)NC(=O)[C@H]1CCC(=O)N1Cc1ccccc1 (mixture of isomers) [Example 31] 6.22 to 7.00

---

- target or system: calpain-I isolated from human erythrocytes (Homo sapiens, UniProt P07384)
- Construct: calpain-I—isolated from human erythrocytes
- assay summary: Calpain I enzyme inhibition in vitro (kinetic fluorescence assay)
- condition notes: apparent Ki from IC50 (Cheng-Prussoff); 20 nM calpain-I, 100 μM Suc-Leu-Tyr-AMC, pH 7.3, room temperature
endpoint label: Ki

Examples from the recorded data:
                                   compound  endpoint_label  reported_measurement
0  NC(=O)C(=O)C(Cc1ccccc1)NC(=O)[C@H]1CCC(=O)N1Cc1cccc(F)c1 (stereo partly shown)              Ki        0.05 to 0.1 µM
1  O=C(NCc1cccs1)C(=O)C(Cc1ccccc1)NC(=O)[C@H]1CCC(=O)N1Cc1ccccc1 (mixture of isomers)              Ki        0.05 to 0.1 µM

Alright, here's another compound for you.
Give the value of Ki reported for the following: O=C(NCc1ncco1)C(=O)C(Cc1ccccc1)NC(=O)[C@H]1CCC(=O)N1Cc1ccccc1 (stereo partly shown) 0.1 to 0.6 µM

---

- assay summary: Assay for determining cytosolic clearance, human liver cytosol
- Assay type: in vitro ADME
- condition notes: 0.5 μM compound, 1 mg/ml human liver cytosol, 37° C., pH 7.5
endpoint label: human cytCL

>>> print(df.to_string())
                                   molecule  endpoint_label  reported_measurement
0  CCNC(=O)C(=O)C(Cc1ccccc1)NC(=O)[C@H]1CCC(=O)N1Cc1ccccc1 (stereo partly drawn)     human cytCL   ++ (0-14 μl/min/mg)
1  CC(C)CNC(=O)C(=O)C(Cc1ccccc1)NC(=O)[C@H]1CCC(=O)N1Cc1ccccc1 (mixture of isomers)     human cytCL   ++ (0-14 μl/min/mg)
2  CCNC(=O)C(=O)C(Cc1ccccc1)NC(=O)[C@H]1CCC(=O)N1Cc1c(OC)cccc1C(F)(F)F (mixture of isomers)     human cytCL   ++ (0-14 μl/min/mg)

---

Each entry below lists one item and its recorded Ki value.
- target or system: calpain-I isolated from human erythrocytes (Homo sapiens)
- Construct: calpain-I—isolated from human erythrocytes
- Sequence (P07384 1-714): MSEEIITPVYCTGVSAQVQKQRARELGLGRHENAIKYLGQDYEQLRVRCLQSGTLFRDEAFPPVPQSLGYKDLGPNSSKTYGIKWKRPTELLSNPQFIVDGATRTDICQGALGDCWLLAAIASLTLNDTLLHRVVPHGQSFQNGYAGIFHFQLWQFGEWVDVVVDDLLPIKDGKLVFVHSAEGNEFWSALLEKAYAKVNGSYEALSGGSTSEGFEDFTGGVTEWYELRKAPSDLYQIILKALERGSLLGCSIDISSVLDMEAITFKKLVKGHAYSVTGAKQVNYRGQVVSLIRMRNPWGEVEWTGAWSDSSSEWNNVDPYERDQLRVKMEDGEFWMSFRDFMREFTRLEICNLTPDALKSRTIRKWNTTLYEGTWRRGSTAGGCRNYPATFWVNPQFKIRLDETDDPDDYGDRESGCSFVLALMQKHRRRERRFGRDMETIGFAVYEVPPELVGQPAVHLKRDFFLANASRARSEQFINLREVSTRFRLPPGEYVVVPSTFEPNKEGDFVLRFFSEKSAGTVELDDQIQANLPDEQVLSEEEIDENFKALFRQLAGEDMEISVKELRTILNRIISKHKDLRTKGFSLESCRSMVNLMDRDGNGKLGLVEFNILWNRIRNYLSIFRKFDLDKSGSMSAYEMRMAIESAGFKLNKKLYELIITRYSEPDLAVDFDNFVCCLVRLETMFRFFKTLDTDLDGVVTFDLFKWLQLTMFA
- Sequence (P04632 1-268 partner): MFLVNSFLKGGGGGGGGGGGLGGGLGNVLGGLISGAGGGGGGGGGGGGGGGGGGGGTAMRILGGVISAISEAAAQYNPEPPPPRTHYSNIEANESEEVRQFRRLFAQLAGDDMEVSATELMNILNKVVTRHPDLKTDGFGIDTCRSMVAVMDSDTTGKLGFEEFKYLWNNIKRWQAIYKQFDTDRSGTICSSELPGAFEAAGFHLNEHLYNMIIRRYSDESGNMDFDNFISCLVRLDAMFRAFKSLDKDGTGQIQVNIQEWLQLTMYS
- assay summary: Calpain I enzyme inhibition in vitro (kinetic fluorescence assay)
- condition notes: apparent Ki from IC50 (Cheng-Prussoff); 20 nM calpain-I, 100 μM Suc-Leu-Tyr-AMC, pH 7.3, room temperature
- Protocol: Testing for blockade of the corresponding enzymic activities was carried out by means of kinetic fluorescence assays (excitation 390 nm, emission 460 nm). Apparent Ki values were calculated from the experimentally determined IC50 values by the Cheng-Prussoff relation assuming a reversible competitive enzyme inhibition. […] The indicated Ki values are averages of the inhibition constants calculated on the basis of 2 to 4 independent dose-effect plots. […]

// worked examples, Ki included
                                   compound  reported_measurement
0  CC(C)CNC(=O)C(=O)C(Cc1ccccc1)NC(=O)[C@H]1CCC(=O)N1Cc1ccccc1 (mixture of isomers)         100 to 600 nM
1  O=C(NC[C@H]1CCCO1)C(=O)C(Cc1ccccc1)NC(=O)[C@H]1CCC(=O)N1Cc1ccccc1 (mixture of isomers)         100 to 600 nM
2  O=C(NC1CC1)C(=O)C(Cc1ccccc1)NC(=O)[C@H]1CCC(=O)N1Cc1ccccc1 (mixture of isomers)         100 to 600 nM
3  N#Cc1cccc(CN2C(=O)CC[C@@H]2C(=O)NC(Cc2ccccc2)C(=O)C(N)=O)c1 (some centres unmarked)         100 to 600 nM
4  NC(=O)C(=O)C(Cc1ccccc1)NC(=O)[C@H]1CCC(=O)N1Cc1ccccc1OC(F)(F)F (some centres unmarked)          50 to 100 nM
5  NC(=O)C(=O)C(Cc1ccccc1)NC(=O)C1CCS(=O)(=O)N1Cc1ccccc1 (centres unmarked)               < 50 nM
6  O=C(NCCc1ccsc1)C(=O)C(Cc1ccccc1)NC(=O)[C@H]1CCC(=O)N1Cc1ccccc1 (single isomer, unassigned)               < 50 nM
7  O=C(NC1CC1)C(=O)C(Cc1ccccc1)NC(=O)[C@H]1CCC(=O)N1Cc1c(F)cccc1F (mixture of isomers)         100 to 600 nM

Please look at this compound and report its Ki: O=C(NCc1ccc2c(c1)OCO2)C(=O)C(Cc1ccccc1)NC(=O)[C@H]1CCC(=O)N1Cc1ccccc1 (mixture of isomers) 50 to 100 nM

Fill in reported Ki for this entry: O=C(NCc1nccs1)C(=O)C(Cc1ccccc1)NC(=O)[C@H]1CCC(=O)N1Cc1ccccc1 (mixture of isomers) 100 to 600 nM
